FYI, the data here is from PubChem BioAssay (NCI).

Test system: DU-145 prostate
Assay: NCI-60 one-dose screen, 48 h (100 = growth as untreated, 0 = no growth, -100 = all killed)
Conditions: 10 µM unless noted
Experimental: Cells are grown in 96 well plates and exposed to the test compound for 48 hours. Compounds are tested at a single concentration, which is 10^-5 M for most compounds. The reported endpoint is percent growth (GI% or GIPRCNT), where numbers from 0 - 100% represent growth inhibition, and numbers from -100% - 0 represent cell death. For example, a value of 40 represents 60% growth inhibition. A value of 0 means no net growth occurred over the course of the experiment. […]
About 83,000 compounds went through this panel and 20% of them were active in at least one assay; those are over-represented in the sample as a whole. Active and inactive are the calls of the source. The calls were made as follows: active = growth percent below 10; inactive = the rest.
Listed here are molecules together with their documented growth.
quantity: growth

[[record]]
molecule = "C=C(C)[C@@H]1CC[C@]2(C(=O)N3CCN(C)CC3)CC[C@]3(C)[C@H](CC[C@@H]4[C@@](C)(CCC(=O)O)[C@H](C(=C)C)CC[C@]43C)[C@@H]12"
reportedresult = "99.9% (inactive)"

[[record]]
molecule = "COc1cc(O)c2c(=O)c3c(CC=C(C)C)cc(OC)c(O)c3oc2c1"
reportedresult = "19.5% (inactive)"

[[record]]
molecule = "CCN1C(=O)N(c2ccccc2)C2NC(=S)N(/N=C/C=C/c3ccccc3OC)C21 (centres undefined)"
reportedresult = "5.45% (active)"

[[record]]
molecule = "c1ccc(Nc2nc3c(s2)CCc2c[nH]cc2-3)nc1"
reportedresult = "103% (inactive)"

[[record]]
molecule = "COc1cc(/C=C/C(=O)c2cc(OC)c(OC)c(OC)c2)ccc1Oc1nc2c(c(=O)n(C)c(=O)n2C)n1C"
reportedresult = "7.64% (active)"

[[record]]
molecule = "Cc1cc(N2CCN(CC(=O)Nc3ccc4c(ccn4Cc4ccccc4)c3)CC2)nc(N2CCOCC2)n1"
reportedresult = "95.4% (inactive)"

[[record]]
molecule = "CN1C(=O)N2CN3CCCN(C3)CN3C(=S)NC1C23 (centres undefined)"
reportedresult = "103% (inactive)"

[[record]]
molecule = "O=C1OCC2=C1C(c1ccccc1)c1cc3c(cc1N2CCO)OCCO3 (centres undefined)"
reportedresult = "-9.9% (active)"

[[record]]
molecule = "N=C(N)c1ccc(-c2ccc(-c3cc(Cl)cc(Cl)c3)s2)s1"
reportedresult = "-72.2% (active)"


* * *

Tested on: OVCAR-4 ovarian
Assay: NCI-60 one-dose screen, 48 h (100 = growth as untreated, 0 = no growth, -100 = all killed)
Conditions: 10 µM unless noted
About 83,000 compounds went through this panel and 20% of them were active in at least one assay; those are over-represented in the sample as a whole. Calls of active or inactive are those of the source. The calls were made as follows: active = growth percent below 10; inactive = the rest.
Quick reference: growth of the listed items.
quantity: growth

[[record]]
compound = "CC(C)(C)OC(=O)CN1CCc2c(sc3ncnc(N4CCN(c5ccc(F)cc5)CC4)c23)C1"
reportedresult = "85.5% (inactive)"

[[record]]
compound = "COc1ccc(C2[C@@H](Cl)C(=O)N2c2cc(OC)c(OC)c(OC)c2)cc1Cl (some centres undefined)"
reportedresult = "56% (inactive)"

[[record]]
compound = "O=Nc1ccc(NC(=O)Nc2ccc([N+](=O)[O-])cc2)cc1"
reportedresult = "87.1% (inactive)"

[[record]]
compound = "CC(C)(C)c1ccc(S(=O)(=O)Oc2ccc(-c3sc4cc(OS(=O)(=O)c5ccc(C(C)(C)C)cc5)ccc4c3C(=O)c3ccc(OCCN4CCCCC4)cc3)cc2)cc1"
reportedresult = "97.1% (inactive)"

[[record]]
compound = "O=C(O)CCCCCCCCCCN1C(=O)/C(=C2/C(=O)N(CC(=O)O)c3ccc(Br)cc32)SC1=S"
reportedresult = "95% (inactive)"

[[record]]
compound = "Clc1cccc(C2Cc3cnccc3-c3[nH]c4ccncc4c32)c1 (centres undefined)"
reportedresult = "36.2% (inactive)"

[[record]]
compound = "N[C@@H]1CCC[C@H]1NCCCCN1C(=O)c2cccc3cc([N+](=O)[O-])cc(c23)C1=O"
reportedresult = "36.6% (inactive)"

[[record]]
compound = "Cc1nc([P+](c2ccccc2)(c2ccccc2)c2ccccc2)c(N2CCCCC2)o1"
reportedresult = "19.8% (inactive)"

[[record]]
compound = "COc1ccc2[nH]cc(-c3nonc3-c3c[nH]c4ccc(Br)cc34)c2c1"
reportedresult = "50.1% (inactive)"

